Biological target: T1, ZFP SBS#800 (synthetic)
T1 chain: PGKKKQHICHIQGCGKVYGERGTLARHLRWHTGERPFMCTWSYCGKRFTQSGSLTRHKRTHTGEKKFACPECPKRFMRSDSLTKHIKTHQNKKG
Experiment: EMSA
Details: tags: MBP fusion
Measured Metric: Kd (nM)
The answer is to be given in nM; state only the numeric part.

Q: Record request: Kd value, item TTGGCAGCCT (dsDNA) DNA 1: TTGGCAGCCT DNA 2: AGGCTGCCAA
Result: 400
